Biological target: T1, FZD10 CRD (Homo sapiens, UniProt Q9ULW2)
T1 construct: 30-156; GPI anchor signal (C); expressed in transfected cells; host or cells: CHO cells, lentiviral pLenti-puro
T1 sequence (Q9ULW2 30-156): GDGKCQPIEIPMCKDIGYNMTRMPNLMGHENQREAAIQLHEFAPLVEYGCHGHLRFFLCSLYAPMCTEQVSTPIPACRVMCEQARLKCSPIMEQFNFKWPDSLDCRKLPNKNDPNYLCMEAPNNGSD
Assay: Immunofluorescence of anti-FZD5 Fab binding to CHO cells overexpressing Frizzled CRD
Design: key: −: no binding; +: very weak binder; ++: weak binder; +++: good binder; ++++: very good binder
MEASUREMENT_TYPE: Immunofluorescence binding, Frizzled CRD overexpressed on CHO cells: FZD10

Immunofluorescence binding, Frizzled CRD overexpressed on CHO cells: FZD10 for Fab-2934: anti-FZD5 Fab with antibody variable region Fv-2934; CDR SEQ ID NOs: 35, 36, 73, 110, 149, 155 (antibody, V domains shown) VH: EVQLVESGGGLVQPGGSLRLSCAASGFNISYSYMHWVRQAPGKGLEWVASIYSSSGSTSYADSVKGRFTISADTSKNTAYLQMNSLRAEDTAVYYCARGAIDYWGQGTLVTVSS VL: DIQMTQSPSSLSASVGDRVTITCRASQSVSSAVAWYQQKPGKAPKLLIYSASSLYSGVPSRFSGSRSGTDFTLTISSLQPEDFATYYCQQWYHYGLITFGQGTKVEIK ?
−

Immunofluorescence binding, Frizzled CRD overexpressed on CHO cells: FZD10 for Fab-2919: anti-FZD5 Fab with antibody variable region Fv-2919; CDR SEQ ID NOs: 35, 36, 58, 97, 134, 155 (antibody, V domains shown) VH: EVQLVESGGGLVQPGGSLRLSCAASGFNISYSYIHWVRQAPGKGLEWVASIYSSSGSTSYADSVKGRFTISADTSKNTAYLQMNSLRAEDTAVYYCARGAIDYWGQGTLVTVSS VL: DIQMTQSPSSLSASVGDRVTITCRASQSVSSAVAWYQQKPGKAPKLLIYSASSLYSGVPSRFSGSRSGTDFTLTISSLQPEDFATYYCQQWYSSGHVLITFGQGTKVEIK ?
−
